# System: PC-9 cells (EGFR Ex19Del)
# Protocol Notes: Potency Assay: pERK (SOS1 pERK IC50 Assay, AlphaLISA SureFire Ultra p-ERK1/2)
# Type: cell-based
# Conditions Used: Homo sapiens; PC-9 cells (EGFR Ex19Del), 1 hour incubation, AlphaLISA p-ERK1/2; read-out: SOS1 pERK IC50
pIC50: −log10 of the molar value.
Parameter: pIC50

C[C@@H](Nc1nc(Cl)nc2c1CN(C(=O)C1CNCCO1)C2)c1cccc(C(F)F)c1F (stereo partly drawn)    > 6.00
C[C@@H](Nc1nc(Cl)nc2c1CN(S(=O)(=O)C1CCCNC1)C2)c1cc(N)cc(C(F)(F)F)c1 (stereo partly drawn)    > 6.00

Data request: Look up pIC50 for this molecule: C[C@@H](Nc1nc(Cl)nc2c1CN(C(=O)c1ccc3c(n1)OCCO3)CC2)c1cc(N)cc(C(F)(F)F)c1
Data returned: < 6.00

Data request: What measured pIC50 goes with C[C@@H](Nc1nc(Cl)nc2c1CN(C(=O)C1CCNCC1F)C2)c1cccc(C(F)F)c1F (stereo partly drawn) ?
Data returned: < 6.00

Data request: Which pIC50 value is on record for C[C@@H](Nc1nc(Cl)nc2c1CN(C(=O)N1CCOC(c3ccncc3)C1)C2)c1cc(N)cc(C(F)(F)F)c1 (stereo partly drawn) ?
Data returned: > 6.00

Data request: Value lookup for pIC50; key = COC1(C(=O)N2Cc3nc(Cl)nc(N[C@H](C)c4cccc(C(F)(F)CN)c4F)c3C2)CCOCC1
Data returned: > 6.00

Data request: Fill blank: measured pIC50 of the molecule C[C@@H](Nc1nc(Cl)nc2c1CN(C(=O)[C@H]1CNCCO1)C2)c1cccc(C(F)F)c1F is ____.
Data returned: > 6.00

Data request: Could you share which pIC50 value was measured for COCC1(C(=O)N2CCc3nc(Cl)nc(N[C@H](C)c4cc(N)cc(C(F)(F)F)c4)c3C2)CC1 ?
Data returned: < 6.00

----------
# Test system: PC-9 cells (EGFR Ex19Del)
# Protocol Notes: Potency Assay: pERK (SOS1 pERK IC50 Assay, AlphaLISA SureFire Ultra p-ERK1/2)
# Type: cell-based
# Conditions Used: Homo sapiens; PC-9 cells (EGFR Ex19Del), 1 hour incubation, AlphaLISA p-ERK1/2; read-out: SOS1 pERK IC50
Parameter: IC50

The following compounds have reported results that may help.
C[C@@H](Nc1nc(Cl)nc2c1CN(C(=O)N1CCOCC1)C2)c1cccc(C(F)(F)C2COCCN2)c1 (stereo partly shown)    > 1000 nM
C[C@@H](Nc1nc(Cl)nc2c1CN(S(=O)(=O)N1CCNCC1)CC2)c1cc(N)cc(C(F)(F)F)c1    < 1000 nM
C[C@@H](Nc1nc(Cl)nc2c1CN(C(=O)N1CCOCC1)C2)c1cccc(C(F)(F)C2COCCN2C)c1 (stereo partly shown)    < 1000 nM

Data request: Param item = C[C@@H](Nc1nc(Cl)nc2c1CN(S(=O)(=O)N1CCN(C)CC1)CC2)c1cc(N)cc(C(F)(F)F)c1 ; retrieve measured IC50.
Data returned: < 1000 nM

----------
# Test system: PC-9 cells (EGFR Ex19Del)
# Protocol Notes: Potency Assay: pERK (SOS1 pERK IC50 Assay, AlphaLISA SureFire Ultra p-ERK1/2)
# Type: cell-based
# Conditions Used: Homo sapiens; PC-9 cells (EGFR Ex19Del), 1 hour incubation, AlphaLISA p-ERK1/2; read-out: SOS1 pERK IC50
pIC50: −log10 of the molar value.
Parameter: pIC50

C[C@@H](Nc1nc(Cl)nc2c1CN(C(=O)c1cccnn1)CC2)c1cc(N)cc(C(F)(F)F)c1 [Example 235]    < 6.00

Data request: Endpoint output: pIC50 of COC1(C(=O)N2Cc3nc(Cl)nc(N[C@H](C)c4cccc(C(F)F)c4F)c3C2)CCN(C)CC1 [Example 323] . Value?
Data returned: > 6.00

Data request: Give the measured pIC50 of C[C@@H](Nc1nc(Cl)nc2c1CN(C(=O)C1(CO)CC1)CC2)c1cc(N)cc(C(F)(F)F)c1 [Example 206] .
Data returned: < 6.00

Data request: Bench note: what pIC50 did C[C@@H](Nc1nc(Cl)nc2c1CN(C(=O)C1C3CNCC31)C2)c1cc(N)cc(C(F)(F)F)c1 (stereo partly shown) [Example 266] show?
Data returned: < 6.00

----------
# Tested on: PC-9 cells (EGFR Ex19Del)
# Protocol Notes: Potency Assay: pERK (SOS1 pERK IC50 Assay, AlphaLISA SureFire Ultra p-ERK1/2)
# Format: cell-based
# Conditions Used: Homo sapiens; PC-9 cells (EGFR Ex19Del), 1 hour incubation, AlphaLISA p-ERK1/2; read-out: SOS1 pERK IC50
Parameter: IC50

Worked examples, 3 compounds total:
C[C@@H](Nc1nc(Cl)nc2c1CN(S(=O)(=O)c1ccccn1)CC2)c1cc(N)cc(C(F)(F)F)c1 [Example 459]    < 1000 nM
COc1ccc(S(=O)(=O)N2CCc3nc(Cl)nc(N[C@H](C)c4cc(N)cc(C(F)(F)F)c4)c3C2)cc1 [Example 454]    < 1000 nM
C[C@@H](Nc1nc(Cl)nc2c1C[C@H](N1CCOCC1)CC2)c1cccc(C(F)F)c1F [Example 441]    > 1000 nM

Lab note: next compound to report on.
Data request: Fill in the blank: the reported IC50 of C[C@@H](Nc1nc(Cl)nc2c1CN(C(=O)N1CCOc3cccnc31)C2)c1cc(N)cc(C(F)(F)F)c1 [Example 160] is ____.
Data returned: < 1000 nM

----------
pIC50: −log10 of the molar value.
The following are reported pIC50 results, target or system SOS1 catalytic domain (residues 564-1049) (Homo sapiens, UniProt Q07889).

Examples from the recorded data:
CC(Nc1nc(Cl)nc2c1CN(C(=O)N1CCOCC1)C2)c1cccc(S(N)(=O)=O)c1 (stereo not shown)    < 6.00
COc1cc(OC)nc(C(=O)N2Cc3nc(Cl)nc(N[C@H](C)c4cc(N)cc(C(F)(F)F)c4)c3C2)n1    < 6.00
C[C@@H](Nc1nc(Cl)nc2c1CN(C(=O)N1C[C@H]3C[C@@H]1CN3)C2)c1cc(N)cc(C(F)(F)F)c1    > 6.00
C[C@@H](Nc1nc(Cl)nc2c1CN(C(=O)N1CCOCC1)C2)c1cccc2c1COCC2(F)F    > 6.00
CC(=O)N1Cc2nc(C)nc(N[C@H](C)c3cc(N)cc(C(F)(F)F)c3)c2C1    < 6.00
COC1CCC(C(=O)N2CCc3nc(Cl)nc(N[C@H](C)c4cc(N)cc(C(F)(F)F)c4)c3C2)C1 (stereo partly shown)    < 6.00

Here is another compound to look at.
Data request: Query (compound): CC(Nc1nc(Cl)nc2c1CN(C(=O)N1CCOCC1)C2)c1cccc(C(F)(F)F)c1Cl (stereo not shown) ; field requested: pIC50
Data returned: < 6.00

----------
# Test System: SOS1 catalytic domain (residues 564-1049) (Homo sapiens)
# Sequence (Q07889 564-1049): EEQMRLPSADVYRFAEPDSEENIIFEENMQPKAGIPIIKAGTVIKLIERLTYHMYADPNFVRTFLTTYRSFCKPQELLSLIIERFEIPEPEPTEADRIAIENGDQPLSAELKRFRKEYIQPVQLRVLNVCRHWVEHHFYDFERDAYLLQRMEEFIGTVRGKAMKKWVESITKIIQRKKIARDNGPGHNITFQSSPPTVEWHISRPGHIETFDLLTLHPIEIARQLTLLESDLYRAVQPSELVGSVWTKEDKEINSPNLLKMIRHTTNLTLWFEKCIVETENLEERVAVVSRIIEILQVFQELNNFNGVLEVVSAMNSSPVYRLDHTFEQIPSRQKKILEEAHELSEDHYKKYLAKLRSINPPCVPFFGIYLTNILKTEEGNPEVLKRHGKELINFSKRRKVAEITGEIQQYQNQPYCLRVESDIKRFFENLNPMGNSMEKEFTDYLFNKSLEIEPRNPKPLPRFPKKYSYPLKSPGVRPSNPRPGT
Parameter: Kd

Past entries and their recorded results:
C[C@@H](Nc1nc(I)nc2c1CN(C(=O)N1CCOCC1)C2)c1cc(N)cc(C(F)(F)F)c1    < 400 nM
C[C@@H](Nc1nc(Cl)nc2c1CN(C(=O)N1CCOCC1)C2)c1cccc(C(F)(F)CN(C)C)c1    < 400 nM
COC[C@H]1CCCN1C(=O)N1Cc2nc(Cl)nc(N[C@H](C)c3cc(N)cc(C(F)(F)F)c3)c2C1    < 400 nM
C[C@@H](Nc1nc(Cl)nc2c1CN(C(=O)C1CC3CCC(C1)O3)C2)c1cc(N)cc(C(F)(F)F)c1 (stereo partly shown)    < 400 nM
C[C@@H](Nc1nc(Cl)nc2c1CN(C(=O)c1nccnn1)C2)c1cc(N)cc(C(F)(F)F)c1    > 400 nM

Data request: Which value of Kd has been reported for Cc1nc2c(c(N[C@H](C)c3cc(N)cc(C(F)(F)F)c3)n1)CN(C(=O)C1CCOCC1)C2 in the records?
Data returned: < 400 nM

Data request: For the molecule C[C@@H](Nc1nc(Cl)nc2c1CN(C(=O)N1CCOCC1)C2)c1cccc(C(F)(F)COC2COC2)c1 , what Kd is on record?
Data returned: < 400 nM

Data request: If you can, please state the reported Kd value of C[C@@H](Nc1nc(Cl)nc2c1CN(C(=O)[C@@H]1C[C@@H]1C#N)CC2)c1cc(N)cc(C(F)(F)F)c1 .
Data returned: < 400 nM

Data request: # lookup: Kd of C[C@@H](Nc1nc(Cl)nc2c1CN(C(=O)N1CCOCC1)C2)c1cccc(C(F)(F)F)c1F
Data returned: > 400 nM

Data request: What does the record list as Kd for COc1nccnc1C(=O)N1CCc2nc(Cl)nc(N[C@H](C)c3cc(N)cc(C(F)(F)F)c3)c2C1 ?
Data returned: > 400 nM
